Biological target: T1, mIL22RA1-Fc fusion protein (mouse, UniProt Q80XZ4 16-230, limits assumed)
T1 construct: also called mouse IL-22Ra 1; IL-22Rα-1; not shown: Fc part
T1 sequence (looked up): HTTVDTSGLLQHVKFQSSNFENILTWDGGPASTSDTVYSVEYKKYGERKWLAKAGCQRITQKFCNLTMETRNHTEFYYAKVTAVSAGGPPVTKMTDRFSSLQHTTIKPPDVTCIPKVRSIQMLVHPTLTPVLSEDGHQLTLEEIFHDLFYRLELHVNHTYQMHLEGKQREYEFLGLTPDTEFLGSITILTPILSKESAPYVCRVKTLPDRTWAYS
Assay: BLI (Octet RED96); mIL22RA1-Fc captured on AHC biosensor, fusion protein in solution at 400 nM, global fit

Binder	Kd / nM
Anti-HSA-mIL-22 A3 (other, Single-chain fusion, expressed in ExpiCHO cells) QVQLVESGGGVVQPGGSLRLSCAASGFAFRGFGMSWVRQAPGKGLEWVSSINNGGSDTYYADSVKGRFTISRDNSKNTLYLQMNSLRAEDTAVYYCAIGGPGASPSGQGTQVTVSSGGGSGGGSGGGSGGGSLPVNTRCKLEVSNFQQPYIVNRTFMLAKEASLADNNTDVRLIGEKLFRGVSAKDQCYLMKQVLNFTLEDVLLPQSDRFQPYMQEVVPFLTKLSNQLSSCHISGDDQNIQKNVRRLKETVKKLGESGEIKAIGELDLLFMSLRNACV	30
